Source: paper PMC10397247

studyTarget: T1, 4H3843-bH
T1 chain: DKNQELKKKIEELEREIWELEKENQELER
protocolSummary: two-hybrid library CCNG1;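 further: natural log of median RNA to DNA barcode read ratio; higher means stronger binding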
metric: interaction score

INSERT INTO assay_data (binder, metric, obsvalue) VALUES
  ('DKIQELKKEIEELERKNWELEKEIQELKR [4H2610-bH]', 'interaction score', 0.428),
  ('DKIQELKKEIEELEREIWELKKKNQELKR [4H2576-bH]', 'interaction score', 1.11),
  ('DKNQELKKKIEELEREIWELEKENQELER [4H3843-bH]', 'interaction score', -0.634);
